# inhibition at 100 µg/mL listing for each entry below
tested on: Platelet; experiment: Inhibition of thrombin-induced rabbit platelet aggregation at 100 ug/ml; assay type: functional; settings: Oryctolagus cuniculus
Hi! Could you send only the number? It should be in %, unit omitted.

COc1cc2c3c(cc4ccccc4c3c1O)NC2=O    84.3
COc1c(O)c(OC)c2c3c(cc4ccccc42)NC(=O)c13    83.9
COc1c(OC)c(OC)c2c3c(cc4ccc(O)cc42)NC(=O)c13    91.9
COc1cccc2c1c(OC)c1c3c(cc(O)c(OC)c32)C(=O)N1    86.5

Please find the next molecule below.
Which value of inhibition at 100 µg/mL has been reported for `COc1cc2c3c(cc4ccc(O)cc4c3c1OC)NC2=O` in the records?
89.8
